- measured-on: HLA-B*51:01
- procedure-text: IEDB peptide-MHC binding, purified MHC/competitive/fluorescence; filed as Kd, often an IC50 or EC50 that approximates it; bounds were set here for any values at or beyond the usual limits of such assays
- measurement-parameters: source organism: Escherichia coli

seq-text: MFWKLPPWL
Kd: ≥ 20 µM

###

- measured-on: HLA-A*26:01
- procedure-text: IEDB peptide-MHC binding, purified MHC/competitive/fluorescence; filed as Kd, often an IC50 or EC50 that approximates it; bounds were set here for any values at or beyond the usual limits of such assays
- measurement-parameters: source organism: Mycobacterium tuberculosis variant bovis BCG str. Pasteur 1173P2
pKd: −log10 of the molar value.

seq-text: AEDLADHHV
pKd: ≤ 4.70

###

- measured-on: HLA-A*02:01
- procedure-text: IEDB peptide-MHC binding, purified MHC/competitive/fluorescence; filed as Kd, often an IC50 or EC50 that approximates it; bounds were set here for any values at or beyond the usual limits of such assays
- measurement-parameters: source organism: Escherichia coli
value-type: Kd

seq-text: MFWKLPPWL
recorded-result: ≥ 20 µM

###

# Lookup of reported log10 IC50 keyed by entry
- measured-on: HLA-A*02:01
- procedure-text: IEDB peptide-MHC binding, purified MHC/competitive/fluorescence; bounds were set here for any values at or beyond the usual limits of such assays
- measurement-parameters: source organism: Zaire ebolavirus
value-type: log10 IC50 (log10 of the value in µM)

seq-text: EMYRHILRS
recorded-result: 0.95
--
seq-text: FLSFASLFL
recorded-result: -1.31
--
seq-text: FLLIHQGMH
recorded-result: 0.98
--
seq-text: LIWKVNPEI
recorded-result: -0.37
--
seq-text: SQDTTIPDV
recorded-result: 0.73
--
seq-text: SLAKHGEYA
recorded-result: 0.86
--
seq-text: GQQFYWPVM
recorded-result: 0.76
--
seq-text: HMMKDEPVV
recorded-result: 0.94
--
seq-text: RTSFFLWVI
recorded-result: -0.58
--
seq-text: LMHNQDGLI
recorded-result: 0.24
--
seq-text: FLLQRWGGT
recorded-result: 0.92

###

- measured-on: HLA-A*32:01
- procedure-text: IEDB peptide-MHC binding, purified MHC/competitive/radioactivity; filed as Kd, often an IC50 or EC50 that approximates it; bounds were set here for any values at or beyond the usual limits of such assays
- measurement-parameters: source organism: Mammarenavirus lassaense

seq-text: LIDGRTSFY
Kd: ≥ 77.8 µM

###

- measured-on: HLA-B*58:01
- procedure-text: IEDB peptide-MHC binding, purified MHC/direct/fluorescence; filed as Kd, often an IC50 or EC50 that approximates it; bounds were set here for any values at or beyond the usual limits of such assays
- measurement-parameters: source organism: Escherichia coli O157:H7

seq-text: RGRGVAIHR
Kd: ≥ 20 µM

seq-text: RPPRRGDKF
Kd: ≥ 20 µM

###

- measured-on: HLA-A*02:19
- procedure-text: IEDB peptide-MHC binding, purified MHC/competitive/fluorescence; filed as Kd, often an IC50 or EC50 that approximates it; bounds were set here for any values at or beyond the usual limits of such assays
- measurement-parameters: source organism: Escherichia coli 536

seq-text: RVGIYFGMK
measured-on: HLA-A*02:19
Kd: ≥ 20 µM

###

- measured-on: HLA-B*46:01
- procedure-text: IEDB peptide-MHC binding, purified MHC/direct/fluorescence; filed as Kd, often an IC50 or EC50 that approximates it; bounds were set here for any values at or beyond the usual limits of such assays
- measurement-parameters: source organism: Influenza A virus (A/duck/Mongolia/47/2001(H7N1))
pKd: −log10 of the molar value.
value-type: pKd

seq-text: THFQRKRRV
recorded-result: ≤ 4.70
